Target Or Test System: D2-like dopamine receptors (Rattus norvegicus)
Construct: Striatal tissue from the brains of male Charles River CD rats; from tissue; host or cells: rat striatum (male Charles River CD rats), crude membrane pellet
Sequence (P61169 whole entry): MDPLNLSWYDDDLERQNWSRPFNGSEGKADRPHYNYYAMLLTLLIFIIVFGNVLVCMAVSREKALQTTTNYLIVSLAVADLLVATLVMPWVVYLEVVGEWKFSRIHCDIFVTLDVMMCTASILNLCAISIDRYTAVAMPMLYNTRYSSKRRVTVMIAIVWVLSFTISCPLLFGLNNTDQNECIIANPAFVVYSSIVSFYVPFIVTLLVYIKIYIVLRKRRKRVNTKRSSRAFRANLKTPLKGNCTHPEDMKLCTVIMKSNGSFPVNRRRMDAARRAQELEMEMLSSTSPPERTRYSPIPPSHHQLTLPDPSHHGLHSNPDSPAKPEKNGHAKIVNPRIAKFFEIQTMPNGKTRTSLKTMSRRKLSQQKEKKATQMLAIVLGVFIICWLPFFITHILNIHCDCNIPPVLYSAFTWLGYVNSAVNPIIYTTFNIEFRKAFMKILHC
Protocol Description: inhibition of tritiated (S)-sulpiride binding to D2-like dopamine receptors, rat striatal tissue
Set-up: species or system male Charles River CD rats
Condition Details: 4° C., 40 minutes, pH 7.7
Readout Name: Ki (nM)

Recorded Ki, per entry:
> print(dat)
                                   molecule  recorded.value
1  O=S(=O)(NCC1CCN(C[C@H]2COc3ccc(Br)cc3O2)CC1)c1ccc(F)cc1F [Example 47]              48
2  O=S(=O)(NCC1CCN(C[C@H]2COc3ccc(Cl)cc3O2)CC1)c1c(F)cccc1F [Example 10]            50.1
3  O=S(=O)(NCC1CCN(C[C@H]2COc3ccc(Cl)cc3O2)CC1)c1ccc(F)c(F)c1F [Example 38]             330
4  O=S(=O)(NCC1CCN(C[C@H]2COc3ccc(Cl)cc3O2)CC1)c1ccc(I)cc1 [Example 18]             227
5  O=S(=O)(NCC1CCN(C[C@H]2COc3ccc(Cl)cc3O2)CC1)c1ccccc1 [Example 34]              88
6  O=S(=O)(NCC1CCN(C[C@H]2COc3ccc(Cl)cc3O2)CC1)c1ccc(C(F)(F)F)cc1 [Example 24]             533

[A] O=S(=O)(NCC1CCN(C[C@H]2COc3ccc(Br)cc3O2)CC1)c1cccc(Cl)c1Cl [Example 13]
[B] O=S(=O)(NCC1CCN(C[C@H]2COc3ccc(Cl)cc3O2)CC1)c1cccc2ccccc12 [Example 31]
Param metric = Ki; output whichever of A , B has the minimum value. Refer to your chosen entry by its label in the reply.
A
(A: 102 nM, B: 215 nM)

* * *

Target Or Test System: 5-HT1A (Rattus norvegicus, UniProt P19327)
Construct: Hippocampal tissue from the brains of male Charles River CD rats; from tissue; host or cells: rat hippocampus (male Charles River CD rats), crude membrane pellet
Sequence (P19327 whole entry): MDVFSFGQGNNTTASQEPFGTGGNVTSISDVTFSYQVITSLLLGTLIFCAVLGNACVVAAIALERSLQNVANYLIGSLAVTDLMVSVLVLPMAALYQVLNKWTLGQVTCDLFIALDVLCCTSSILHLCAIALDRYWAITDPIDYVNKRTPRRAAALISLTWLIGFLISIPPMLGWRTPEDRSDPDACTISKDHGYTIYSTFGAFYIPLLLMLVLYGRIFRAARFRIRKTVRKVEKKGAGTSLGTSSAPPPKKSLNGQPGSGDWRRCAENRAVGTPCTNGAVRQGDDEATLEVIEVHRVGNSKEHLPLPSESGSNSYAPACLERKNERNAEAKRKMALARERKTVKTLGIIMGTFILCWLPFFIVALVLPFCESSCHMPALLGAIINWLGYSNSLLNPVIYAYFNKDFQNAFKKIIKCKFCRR
Protocol Description: inhibition of tritiated ligand ([3H]8-OH-DPAT) binding to 5-HT1A receptors, rat hippocampal tissue
Parameters: species or system male Charles River CD rats
Condition Details: 25° C., 30 minutes, pH 7.7
Readout Name: Ki (nM)

These solved cases illustrate the format of a correct answer.
> print(dat)
                                   molecule  result.units  recorded.value
1  O=S(=O)(NCC1CCN(C[C@H]2COc3ccc(C(F)(F)F)cc3O2)CC1)c1ccccn1 [Example 12]            nM              30
2  O=[N+]([O-])c1ccc(S(=O)(=O)NCC2CCN(C[C@H]3COc4ccc(Cl)cc4O3)CC2)cc1 [Example 4]            nM              15
3  O=S(=O)(NCC1CCN(C[C@H]2COc3ccc(Cl)cc3O2)CC1)c1cccc(Cl)c1Cl [Example 43]            nM             1.5

[A] O=S(=O)(NCC1CCN(C[C@H]2COc3ccc(Cl)cc3O2)CC1)c1ccccn1 [Example 1, hydrate]
[B] O=S(=O)(NCC1CCN(C[C@H]2COc3ccc(Br)cc3O2)CC1)c1cccc(Cl)c1Cl [Example 13]
I need your help: which of the pair A , B has higher Ki? Bench note: the answer is the label of the chosen record.
A
(A: 86.8 nM, B: 20 nM)

[A] CC(=O)Nc1ccc(S(=O)(=O)NCC2CCN(C[C@H]3COc4ccc(Br)cc4O3)CC2)cc1 [Example 44]
[B] O=S(=O)(NCC1CCN(C[C@H]2COc3ccc(Cl)cc3O2)CC1)c1c(F)cccc1F [Example 10]
[C] COc1ccc(S(=O)(=O)NCC2CCN(C[C@H]3COc4ccc(Cl)cc4O3)CC2)cc1OC [Example 6]
[D] O=S(=O)(NCC1CCN(C[C@H]2COc3ccc(Cl)cc3O2)CC1)c1ccc(Cl)cc1 [Example 11]
Put the items in order so that reported Ki rises from first to last. Form entry: ranked labels (order as requested).
B, A, C, D
(B: 7.4 nM, A: 14 nM, C: 20 nM, D: 69 nM)
